LC retention time for assorted compounds
# TEST_SUMMARY: RP, Thermo Scientific Hypersil GOLD, 1.9 µm, 40 °C, 0.4 mL/min; A: water + 0.1% formic acid, pH 3; B: acetonitrile + 0.1% formic acid, pH 3; gradient (min/%B) 0/0 1/0 11/100 13/100 14/0 16/0
# STATED_CONDITIONS: stereoisomer not certain
Lab book: enter the figure in min, no units written.

Below, each entry is followed by its recorded LC retention time result.
COMPOUND: CC1C(=O)Nc2ccccc21 (configuration not stated)
LC retention time (min): 6.25

COMPOUND: O=P(O)(O)OCC(O)CO (configuration not stated) [GLYCEROL 3-PHOSPHATE]
LC retention time (min): 0.67

COMPOUND: NC(CCCC(N)C(=O)O)C(=O)O (configuration not stated) [LL-2-6-DIAMINOHEPTANEDIOATE]
LC retention time (min): 0.6

COMPOUND: CSCCC(O)C(=O)O (configuration not stated) [2-HYDROXY-4-(METHYLTHIO)BUTANOATE]
LC retention time (min): 4.21

COMPOUND: CCCCCCCCC=CCCCCCCCCCCCC(=O)O [ERUCATE]
LC retention time (min): 13.5

Asked: Name the reported LC retention time value associated with the compound CSc1ncnc2nc[nH]c12
Given back: 4.8

Asked: Query CCC(=O)C(=O)[O-] [2-OXOBUTANOATE] next
Given back: 9.98

Asked: Query O=C(O)c1cc(O)ccc1O [2-5-DIHYDROXYBENZOATE] next
Given back: 4.52

---

# TEST_SUMMARY: RP, Thermo Scientific Hypersil GOLD, 1.9 µm, 40 °C, 0.4 mL/min; A: water + 0.1% formic acid, pH 3; B: acetonitrile + 0.1% formic acid, pH 3; gradient (min/%B) 0/0 1/0 11/100 13/100 14/0 16/0
# STATED_CONDITIONS: stereoisomer not certain
MEASURED_QUANTITY: LC retention time (min)
Lab book: enter the figure in min, no units written.

MOLECULE: CCCCC(CC)COC(=O)c1ccccc1C(=O)OCC(CC)CCCC (stereo not drawn) [BIS(2-ETHYLHEXYL)PHTHALATE]
LC retention time [min]: 13

MOLECULE: Oc1ccccc1
LC retention time [min]: 6.21

MOLECULE: O=C(O)CCCCCCCCCC(=O)O
LC retention time [min]: 7.15

MOLECULE: CC(=O)NC(CC(C)C)C(=O)O (stereo not drawn)
LC retention time [min]: 5.47

MOLECULE: CC(=O)C1C(=O)C=C(C)OC1=O (stereo not drawn) [Dehydroacetic acid]
LC retention time [min]: 6.42

Here is another molecule to look at.
Asked: Name the reported LC retention time value associated with the molecule OCC1OC(O)C(O)C1O (stereo not drawn)
Given back: 0.66

---

# TEST_SUMMARY: RP, Thermo Scientific Hypersil GOLD, 1.9 µm, 40 °C, 0.4 mL/min; A: water + 0.1% formic acid, pH 3; B: acetonitrile + 0.1% formic acid, pH 3; gradient (min/%B) 0/0 1/0 11/100 13/100 14/0 16/0
# STATED_CONDITIONS: stereoisomer not certain
LC retention time for assorted molecules
Lab book: enter the figure in min, no units written.

Below, each entry is followed by its recorded LC retention time result.
MOLECULE: O=C(OC1Cc2c(O)cc(O)cc2OC1c1cc(O)c(O)c(O)c1)c1cc(O)c(O)c(O)c1 (single isomer, unassigned; (-)) [(-)-Epigallocatechin gallate]
LC retention time (min): 5.05
//
MOLECULE: CC(=O)NC(CC(=O)O)C(=O)O (centres undefined) [N-ACETYLASPARTATE]
LC retention time (min): 0.83
//
MOLECULE: CC(=O)OCC(=O)O
LC retention time (min): 1.93

Here is another molecule to look at.
Asked: Name the reported LC retention time value associated with the molecule CC(=O)Oc1cccc(O)c1 [RESORCINOL MONOACETATE]
Given back: 6.1

Origin of values: the RepoRT retention time repository
